System: corn (Zea mays)
TEST NAME: Test A postemergence
Format: in vivo
CONDITION CONTEXT: 125 g ai/ha, postemergence; visual injury rating on 0 to 100 scale (0 no effect, 100 complete control), approx. 10 d
PROPERTY LABEL: Corn plant response rating
Give your answer as a number; write no unit.

// known answers, use as guide
Cc1cc(C2CN(C)C(=O)C2C(=O)Nc2ccccc2C(F)(F)F)ccc1F (stereo not shown) :: 20
CC(C)c1ccc(C2CNC(=O)C2C(=O)Nc2cccc(F)c2F)cc1 (stereo not shown) :: 0
CN1CC(c2cccc(OC(F)(F)C(F)F)c2)C(C(=O)Nc2ccc(F)c(F)c2F)C1=O (stereo not shown) :: 70
CC(C)c1ccc(C2CNC(=O)C2C(=O)Nc2ccccc2F)cc1 (stereo not shown) :: 0
CC(=O)Oc1cccc(C2CNC(=O)C2C(=O)Nc2cccc(F)c2F)c1 (stereo not shown) :: 0
O=C1NCC(c2ccc(F)c(F)c2)C1C(=O)Nc1ccc(Cl)cc1F (stereo not shown) :: 0
CN1CC(c2ccc(C(F)(F)F)cc2F)C(C(=O)Nc2cccc(F)c2F)C1=O (stereo not shown) :: 40
C=C(C)CN1CC(c2cccc(C(F)(F)F)c2)C(C(=O)Nc2cccc(F)c2F)C1=O (stereo not shown) :: 0
COCc1cccc(C2CNC(=O)C2C(=O)Nc2ccc(F)cc2F)c1 (stereo not shown) :: 0
Cc1ccc(F)c(NC(=O)C2C(=O)NCC2c2ccc(F)c(F)c2)c1 (stereo not shown) :: 0

Request: State the recorded Corn plant response rating for this entry: COc1cccc(NC(=O)C2C(=O)NCC2c2cccc(OC(F)F)c2)c1F (stereo not shown)
Result: 0

Request: State the recorded Corn plant response rating for this entry: O=C1NCC(c2cccc(O)c2)C1C(=O)Nc1cccc(F)c1F (racemic)
Result: 0

Request: State the recorded Corn plant response rating for this entry: CN1CC(c2ccc3c(c2)OC(F)(F)O3)C(C(=O)Nc2ccc(F)cc2F)C1=O (stereo not shown)
Result: 60

Request: State the recorded Corn plant response rating for this entry: C=C(Cl)CN1CC(c2cccc(C(F)(F)F)c2)C(C(=O)Nc2ccccc2F)C1=O (stereo not shown)
Result: 0

Request: State the recorded Corn plant response rating for this entry: CN1CC(c2ccc(C(F)(F)F)cc2F)C(C(=O)Nc2ccccc2F)C1=O (stereo not shown)
Result: 0

Request: State the recorded Corn plant response rating for this entry: Cc1cc(C2CNC(=O)C2C(=O)Nc2cccc(F)c2F)ccc1F (stereo not shown)
Result: 20

Request: State the recorded Corn plant response rating for this entry: O=C1NCC(c2ccc(F)cc2F)C1C(=O)Nc1cccc(F)c1F (stereo not shown)
Result: 0

Request: State the recorded Corn plant response rating for this entry: O=C1NCC(c2c(F)cccc2F)C1C(=O)Nc1ccc(F)cc1F (racemic)
Result: 0

Request: State the recorded Corn plant response rating for this entry: CC(=O)N1CC(c2cccc(C(F)(F)F)c2)C(C(=O)Nc2ccccc2F)C1=O (stereo not shown)
Result: 20

====

Tested on: corn (Zea mays)
TEST NAME: Test G Post-Emergence Protocol
Type: in vivo
CONDITION CONTEXT: Zea mays, post-emergence, 312 h, 15.625 g ai/ha, evaluated after 13 days (100=total damage to plant; 0=no damage to plant), read-out: Corn damage rating
Text: Seeds of corn (Zea mays), giant foxtail (Setaria faberi), barnyardgrass (Echinochloa crus-galli), ivy-leaved morning glory (Ipomoea hederacea), redroot pigweed (Amaranthus retroflexus) and velvetleaf (Abutilon theophrasti) were sown in standard soil in pots. […]
Listing of entries alongside the reported plant injury at 15.625 g/ha.
A complete answer gives the number followed by the unit.

// known answers, use as guide
Cc1c(C#N)cccc1NC(=O)[C@H]1C(=O)N(C)C[C@@H]1c1ccc(C(F)(F)F)cc1 (racemic) :: 10%
CN1C[C@@H](c2ccc(C(F)(F)F)cc2)[C@H](C(=O)Nc2ccn(C)n2)C1=O (racemic) :: 0%

Request: State the recorded plant injury at 15.625 g/ha for this entry: CN1C[C@@H](c2ccc(C(F)(F)F)cc2)[C@H](C(=O)Nc2nnc(C(F)(F)F)s2)C1=O (racemic)
Result: 0%

Request: State the recorded plant injury at 15.625 g/ha for this entry: Cc1c(NC(=O)[C@@H]2C(=O)N(C)C[C@H]2c2ccc(C(F)(F)F)cc2)ccnc1Cl (racemic)
Result: 0%

Request: State the recorded plant injury at 15.625 g/ha for this entry: CN1C[C@@H](c2ccc(C(F)(F)F)cc2)[C@H](C(=O)Nc2nnnn2C)C1=O (racemic)
Result: 0%

Request: State the recorded plant injury at 15.625 g/ha for this entry: CN1C[C@@H](c2ccc(C(F)(F)F)cc2)[C@H](C(=O)Nc2ncc(C#N)s2)C1=O (racemic)
Result: 0%

Request: State the recorded plant injury at 15.625 g/ha for this entry: CN1C[C@H](c2ccc(C(F)(F)F)cc2)[C@](C)(C(=O)Nc2cccc(F)c2F)C1=O (racemic)
Result: 20%
